Test system: Mycobacterium tuberculosis
Assay: Antitubercular activity against Mycobacterium tuberculosis H37Rv ATCC 27294 after 28 days by two-fold serial dilution method
Format: functional
Conditions: Mycobacterium tuberculosis, H37Rv ATCC 27294, 672 h
MEASUREMENT NAME: log10 MIC (log10 of the value in µM)

- MOLECULE: "COc1ccccc1N1CCN(C(=O)c2nc3cc(Cl)ccc3s2)CC1"
  log10 MIC: 0.91
- MOLECULE: "O=C(c1nc2cc(Cl)ccc2s1)N1CCSCC1"
  log10 MIC: 1.32
- MOLECULE: "CCOC(=O)c1nc2ccccc2s1"
  log10 MIC: 2.08
- MOLECULE: "O=C(c1nc2ccccc2s1)N1CCSCC1"
  log10 MIC: 1.98
- MOLECULE: "COc1ccc(N2CCN(C(=O)c3nc4cc(Cl)ccc4s3)CC2)cc1"
  log10 MIC: 0.91
- MOLECULE: "O=C(c1nc2cc(C(F)(F)F)ccc2s1)N1CCN(c2cnccn2)CC1"
  log10 MIC: 0.90
- MOLECULE: "O=C(c1nc2cc(C(F)(F)F)ccc2s1)N1CCCCC1"
  log10 MIC: 1.60
- MOLECULE: "O=C(c1nc2cc(Cl)ccc2s1)N1CCOCC1"
  log10 MIC: 1.34
- MOLECULE: "CC(=O)N1CCN(C(=O)c2nc3cc(C(F)(F)F)ccc3s2)CC1"
  log10 MIC: 0.64
- MOLECULE: "O=C(c1nc2cc(C(F)(F)F)ccc2s1)N1CCN(c2ccncc2)CC1"
  log10 MIC: 0.90
- MOLECULE: "CC(=O)c1ccc(N2CCN(C(=O)c3nc4cc(Cl)ccc4s3)CC2)cc1"
  log10 MIC: 0.59
- MOLECULE: "COc1ccc(N2CCN(C(=O)c3nc4cc(C(F)(F)F)ccc4s3)CC2)cc1"
  log10 MIC: 0.87
- MOLECULE: "O=C(c1nc2cc(C(F)(F)F)ccc2s1)N1CCSCC1"
  log10 MIC: 0.37
- MOLECULE: "O=C(c1nc2ccccc2s1)N1CCN(c2ccncc2)CC1"
  log10 MIC: 0.98
- MOLECULE: "COc1ccccc1N1CCN(C(=O)c2nc3cc(C(F)(F)F)ccc3s2)CC1"
  log10 MIC: 1.77
- MOLECULE: "O=C(c1nc2ccccc2s1)N1CCOCC1"
  log10 MIC: 0.80
- MOLECULE: "O=C(c1nc2ccccc2s1)N1CCN(C(c2ccccc2)c2ccccc2)CC1"
  log10 MIC: 0.28
- MOLECULE: "CC(=O)N1CCN(C(=O)c2nc3ccccc3s2)CC1"
  log10 MIC: 0.73
- MOLECULE: "O=C(c1nc2ccccc2s1)N1CCN(c2cnccn2)CC1"
  log10 MIC: 1.28
- MOLECULE: "O=C(c1nc2cc(Cl)ccc2s1)N1CCCCC1"
  log10 MIC: 1.65
- MOLECULE: "O=C(c1nc2cc(C(F)(F)F)ccc2s1)N1CCN(c2ccccc2)CC1"
  log10 MIC: 1.50
- MOLECULE: "CCOC(=O)c1nc2cc(Cl)ccc2s1"
  log10 MIC: 1.11
- MOLECULE: "CCOC(=O)c1nc2cc(C(F)(F)F)ccc2s1"
  log10 MIC: 1.36
- MOLECULE: "CC(=O)N1CCN(C(=O)c2nc3cc(Cl)ccc3s2)CC1"
  log10 MIC: 1.59
- MOLECULE: "NC(=O)c1cnccn1 [PYRAZINAMIDE]"
  log10 MIC: 1.71

Entry source: ChEMBL document CHEMBL3797184
